# target: SARS-COV-2 3CLpro (Severe acute respiratory syndrome coronavirus 2, UniProt P0DTD1)
# IC50 annotations

These solved cases illustrate the format of a correct answer.
In [3]: df
Out[3]:
                                        mol  value_kind   recorded_result
0  CC(C)C[C@@H](C(=O)N[C@H](C#N)C[C@@H]1CCNC1=O)N(C)C(=O)[C@@H](NC(=O)C(F)(F)F)C(C)C        IC50  1000 to 10000 nM
1  CC(C)C[C@H](NC(=O)OCc1cccnc1)C(=O)N[C@H](C#N)C[C@@H]1CCCNC1=O        IC50     0.1 to 999 nM

Kindly consider the entry below.
Please provide the recorded IC50 for CC(C)C[C@H](NC(=O)OCc1ccccc1)C(=O)N[C@H](C#N)C[C@@H]1CCCNC1=O , tested on SARS-COV-2 3CLpro (Severe acute respiratory syndrome coronavirus 2, UniProt P0DTD1).
0.1 to 999 nM
